- study-target: CHK1 kinase (Homo sapiens, UniProt O14757)
- Construct: purchased Promega V1941
- Sequence (O14757 1-476): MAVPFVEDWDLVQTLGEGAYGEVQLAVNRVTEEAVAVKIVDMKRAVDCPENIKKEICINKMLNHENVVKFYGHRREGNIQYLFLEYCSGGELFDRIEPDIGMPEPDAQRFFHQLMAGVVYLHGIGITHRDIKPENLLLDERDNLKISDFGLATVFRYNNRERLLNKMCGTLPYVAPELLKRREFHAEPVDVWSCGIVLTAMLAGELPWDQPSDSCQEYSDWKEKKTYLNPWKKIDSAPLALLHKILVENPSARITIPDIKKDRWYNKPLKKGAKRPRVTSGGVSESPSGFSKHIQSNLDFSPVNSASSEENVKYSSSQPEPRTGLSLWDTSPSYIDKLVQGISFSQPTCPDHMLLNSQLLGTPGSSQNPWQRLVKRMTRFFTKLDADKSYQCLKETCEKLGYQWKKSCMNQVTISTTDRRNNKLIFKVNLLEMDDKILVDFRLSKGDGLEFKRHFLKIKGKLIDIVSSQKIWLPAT
- test-method-notes: CHK1 kinase inhibition, ADP-Glo kinase assay
- Assay type: biochemical
- test-parameters: compound concentration 10 nM; ATP 10 μM; CHK1 1 ng/well; read-out: Inh % (inhibitory effect on CHK1 kinase activity)
Use label 1 when the recorded inhibition at 0.01 µM is no lower than 80%; use label 0 when it is lower.

Some entries whose results are on file:
molecule | assigned-label
COc1cccc(OC[C@H]2COCCN2)c1-c1cc(Nc2cnc(C#N)cn2)n[nH]1 [Example 7] | label 1
N#Cc1cnc(Nc2cc(-c3c(F)cccc3OCC3CNC3)[nH]n2)cn1 [Example 53] | label 1
CCc1cnc(Nc2cc(-c3c(OC)cccc3OC[C@H]3CCCNC3)[nH]n2)cn1 [Example 27] | label 1
COc1c(Cl)ccc(OC[C@@H]2CNCCO2)c1-c1cc(Nc2cnc(C#N)cn2)n[nH]1 [Example 15] | label 0
COc1cccc(OC[C@@H]2CNCCN2C)c1-c1cc(Nc2cnc(C#N)cn2)n[nH]1 [Example 11] | label 0

Please tell me: is the molecule COc1cccc(OC[C@@H]2CNCCO2)c1-c1cc(Nc2cnc(C#N)cn2)n[nH]1 [Example 1] at or over 80% in terms of inhibition at 0.01 µM?
label 1

Another molecule: COc1cccc(OC[C@H]2CCCOC2)c1-c1cc(Nc2cnc(C#N)cn2)n[nH]1 [Example 34]
label 0

* * *

- study-target: CHK1 kinase (Homo sapiens)
- Construct: purchased Promega V1941
- test-method-notes: CHK1 kinase inhibition, ADP-Glo kinase assay
- Type: biochemical
- test-parameters: ATP 10 μM; CHK1 1 ng/well; read-out: IC50 (inhibitory effect on CHK1 kinase activity)
result-type: pIC50
Expect pIC50 as a plain number equal to -log10 of the molar concentration.

structure-string | pIC50
COc1cccc(OC[C@H]2CCCN2)c1-c1cc(Nc2cnc(C#N)cn2)n[nH]1 | 9.59
COc1cc(Cl)cc(OCC2CNC2)c1-c1cc(Nc2cnc(C#N)cn2)n[nH]1 | 8.76
COc1cc(F)cc(OC[C@@H]2CNCCO2)c1-c1cc(Nc2cnc(C#N)cn2)n[nH]1 | 9.16

Recorded pIC50 for Cc1cc(F)c(-c2cc(Nc3cnc(C#N)cn3)n[nH]2)c(OC[C@H]2CCNC2)c1 , please?
8.80
